Assay: growth inhibition of DIPG cells – cell-based, MIPE5.0 library, qHTS (AID 1347068);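 as to IC50: cells exposed to compound for 48 hours before viability readout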
Conditions: SU-DIPG-XXV viability
Results filed as inconclusive are left out. Active and inactive are the calls of the source. The limit is not given here; nearly all actives have IC50 up to about 30 µM.
ENDPOINT NAME: IC50

Reference set, count: 5
COMPOUND	READOUT VALUE
C=CC(=O)N1CCC(Oc2cc3c(Nc4ccc(Cl)c(Cl)c4F)ncnc3cc2OC)CC1	16.6 µM (active)
CC1(C(=O)O)CCC2(C)CCC3(C)C(=CC(=O)C4C5(C)CCC(OC6OC(C(=O)O)C(O)C(O)C6OC6OC(C(=O)O)C(O)C(O)C6O)C(C)(C)C5CCC43C)C2C1 (centres undefined)	inactive
O=C(Cc1ccccc1)Nc1nnc(CCSCCc2nnc(NC(=O)Cc3ccccc3)s2)s1	inactive
CC(C)(O)c1coc(S(=O)(=O)NC(=O)Nc2c3c(cc4c2CCC4)CCC3)c1	inactive
O=C(Nc1ccc(OC(F)(F)F)cc1)c1sccc1NCc1ccnc2ccccc12	inactive

// IC50 lookup, compound = `Fc1ccc(-c2nc(-c3ccccc3F)[nH]c2-c2ccncc2)cc1` , result: inactive

// IC50 lookup, compound = `CC(=O)N1CCC(Nc2cc(C(=O)NC[C@H](O)CN3CCc4ccccc4C3)ncn2)CC1` , result: inactive

// IC50 lookup, compound = `COCCOc1ccc2c(c1)ncn2-c1ccc2cccc(N3CCC(N)CC3)c2n1` , result: 18.6 µM (active)

====

Exercise: state measured viability for each of the molecules provided.
Assay: drug combination growth inhibition, ovarian cancer – cell-based, oncology-focused library, rucaparib conditional, profiling panel (AID 1508598)
Settings: patient-derived ovarian cancer cells, CellTiter-Glo viability, 144 h; at 0.000305 µM; OCI-C5x cells; with rucaparib 10 µM; stronger effect = lower value; 100% = cells with rucaparib alone
Active and inactive are the calls of the source.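 How the source made its calls: active means normalized viability below 100% at a tested concentration; inactive means the rest.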

// viability lookup, molecule = `O=C(O)c1ccc(O)c2ncccc12` , result: 112% (inactive)

// viability lookup, molecule = `CCn1c(-c2nonc2N)nc2c(C#CC(C)(C)O)ncc(OC[C@H]3CCCNC3)c21` , result: 119% (inactive)

// viability lookup, molecule = `CC(C)CC(=O)Nc1n[nH]c2c1CN(C(=O)C1CCN(C)CC1)C2(C)C` , result: 123% (inactive)

// viability lookup, molecule = `CC(=O)Nc1cccc(-n2c(=O)n(C3CC3)c(=O)c3c(Nc4ccc(I)cc4F)n(C)c(=O)c(C)c32)c1` , result: 123% (inactive)

// viability lookup, molecule = `Cn1cnc(=N)c2[nH]cnc21` , result: 112% (inactive)

// viability lookup, molecule = `COc1c(C)cnc(Cn2cnc3c(Cl)nc(N)nc32)c1C` , result: 115% (inactive)

// viability lookup, molecule = `CNC(=O)c1cc(COc2nnc(Nc3ccc(Cl)cc3)c3ccoc23)ccn1` , result: 113% (inactive)

// viability lookup, molecule = `O=C(NOC[C@H](O)CO)c1ccc(F)c(F)c1Nc1ccc(I)cc1F` , result: 115% (inactive)

====

Assay: growth inhibition of DIPG cells – cell-based, MIPE5.0 library, qHTS (AID 1347068);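 as to IC50: cells exposed to compound for 48 hours before viability readout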
Details: SU-DIPG-XXV viability
Results filed as inconclusive are left out. The source made the active and inactive calls. No cut-off is given here; in the data, nearly all actives have IC50 up to about 30 µM.
Mark one answer only. Choices: class 1 = active, class 0 = inactive

Query: Please indicate how the test categorized N#CC(c1ccnc(NCCc2cccnc2)n1)c1nc2ccccc2s1 (stereo not drawn) .
Reply: class 0

Query: Please indicate how the test categorized `Nc1nc(N)c2nc(-c3cccc(O)c3)c(-c3cccc(O)c3)nc2n1` .
Reply: class 0

Query: Please indicate how the test categorized `O=C(C1CC1)N1CC[C@@H](Cn2c(-c3ccc(-c4ccc5occc5c4)cc3)nc3cnccc32)C1` .
Reply: class 0

Query: Please indicate how the test categorized `O=C(Nc1ncc(-c2cc(C(F)F)nn2-c2c(Cl)cccc2Cl)s1)C1CC1` .
Reply: class 1

Query: Please indicate how the test categorized `C[C@H]1COCCN1c1cc(C2(S(=O)(=O)C3CC3)CC2)nc(-c2ccc(NC(=S)NCCO)cc2)n1` .
Reply: class 1

Query: Please indicate how the test categorized `CS(=O)(=O)c1cccc(CNc2nc(Nc3ccc4c(c3)CCC(=O)N4)ncc2C(F)(F)F)c1` .
Reply: class 1

Query: Please indicate how the test categorized `COCCOc1cnc2ccn([C@H](C)c3nnc4c(F)cc(-c5cnn(C)c5)cn34)c(=O)c2c1` .
Reply: class 0

Query: Please indicate how the test categorized `Oc1ccc(-c2ccc(-c3cc(Nc4cccc(CNC5CC5)c4)n[nH]3)cc2)c(O)c1` .
Reply: class 1

Query: Please indicate how the test categorized `OCCCNc1cc(-c2ccnc(Nc3cccc(Cl)c3)n2)ccn1` .
Reply: class 1

Query: Please indicate how the test categorized `CC(=O)N[C@H]1[C@H](O[C@@H]2c3ccc(c(Cl)c3)Oc3cc4cc(c3O[C@@H]3O[C@H](CO)[C@@H](O)[C@H](O)[C@H]3NC(=O)CCCCCCCC(C)C)Oc3ccc(cc3Cl)C[C@H]3NC(=O)[C@H](N)c5ccc(O)c(c5)Oc5cc(O)cc(c5)[C@H](NC3=O)C(=O)N[C@H]4C(=O)N[C@H]3C(=O)N[C@@H]2C(=O)N[C@@H](C(=O)O)c2cc(O)cc(O[C@H]4O[C@H](CO)[C@@H](O)[C@H](O)[C@@H]4O)c2-c2cc3ccc2O)O[C@H](CO)[C@@H](O)[C@@H]1O` .
Reply: class 0

Query: Please indicate how the test categorized `Cc1ccc(C(=O)Nc2cccc(C(F)(F)F)c2)cc1Nc1nc(-c2cccnc2)nc2c1cnn2C` .
Reply: class 0

Query: Please indicate how the test categorized `Cc1cc(C)c(CNC(=O)c2cc(-c3ccc(N4CCN(C)CC4)nc3)cc3c2c(C)cn3C(C)C)c(=O)[nH]1` .
Reply: class 0

Query: Please indicate how the test categorized `Cc1cnc(Nc2ccc(CN3CCOCC3)cc2)nc1Nc1cccc(S(=O)(=O)NC(C)(C)C)c1` .
Reply: class 1

====

Experiment: viability loss with induced miR-34 in A549 – imaging, A549 dox-inducible miR-34, nuclei and caspase counts, primary screen (AID 1347080)
Conditions: A549 miR-34 inducible, Hoechst nuclei count, 48 h; measured here: total cells without miR-34 induction
cell count strictly under 6000 means yes; at 6000 or over means no.

Query: For this compound, is cell count lower than 6000? CC#CCC(C)[C@@H](O)/C=C/[C@@H]1[C@H]2C/C(=C/CCCC(=O)O)C[C@H]2C[C@H]1O (stereo not given in full)
Reply: yes

Query: For this compound, is cell count lower than 6000? `COc1cccc(NC(=O)/C=C/c2ccc(Cl)cc2)c1`
Reply: no

Query: For this compound, is cell count lower than 6000? `CN(C)C(=O)c1cc2cnc(Nc3ccc(N4CCNCC4)cn3)nc2n1C1CCCC1`
Reply: yes

Query: For this compound, is cell count lower than 6000? `O=c1cc(N2CCOCC2)nc2c3ccccc3ccn12`
Reply: no

Query: For this compound, is cell count lower than 6000? `CN(CC[C@@H](Oc1ccc(-c2ccccc2)cc1)c1ccc(F)cc1)CC(=O)O`
Reply: no

====

Test: growth inhibition, single agents and combos, ICB984, cell-based, cisplatin or BGB combos, synergistic combos for chromothripsis tumors (AID 1671451);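 also: cells exposed for 96 hours before readout; 0% = vehicle DMSO and 100% = killing by high DMSO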
Details: ICB984 medulloblastoma cells, drug combinations, cisplatin combo, at 0.5 µM, stronger effect = higher value
ENDPOINT NAME: inhibition (%)
Answer format: numeric, % implied, no suffix.

// inhibition lookup, compound = `CN[C@@H]1CN(c2ccc3c(=O)c(C(=O)O)cn(-c4nccs4)c3n2)C[C@H]1OC` , result: -31.3

// inhibition lookup, compound = `Nc1ccccc1NC(=O)c1ccc(CNc2nccc(-c3cccnc3)n2)cc1` , result: -33.3

// inhibition lookup, compound = `O=C(CCCCCCNC(=O)c1cnc(N(c2ccccc2)c2ccccc2Cl)nc1)NO` , result: -17.2

// inhibition lookup, compound = `COc1ccc(C(=O)C2CCN(CC(=O)N(Cc3nc4c(c(=O)[nH]3)COCC4)CC3CC3)CC2)cc1` , result: -15

====

Experiment: viability loss with induced miR-34 in A549 – imaging, A549 dox-inducible miR-34, nuclei and caspase counts, primary screen (AID 1347080)
Settings: A549 miR-34 inducible, Hoechst nuclei count, 48 h; measured here: total cells with miR-34 induction; stronger effect = lower value
Exercise: state measured cell count for each of the molecules provided.

// cell count lookup, molecule = `CCCCC[C@@H](O)/C=C/[C@H]1[C@H](O)CC(=O)[C@@H]1CCCCCCC(=O)O` , result: 5460

// cell count lookup, molecule = `CC(C)c1cc(C(C)C)c(CC(=O)NS(=O)(=O)Oc2c(C(C)C)cccc2C(C)C)c(C(C)C)c1` , result: 5000

// cell count lookup, molecule = CCCCC1C(=O)CC[C@H]2[C@@H]1CC(=O)[C@@H]2C/C=C\CCCC(=O)O (stereo not given in full) , result: 5940

// cell count lookup, molecule = `Cn1cc(/C=C2/C(=O)Nc3cccnc32)c2ccccc21` , result: 2650

// cell count lookup, molecule = `N#CC1(c2ccc(NC(=O)c3cccnc3NCc3ccncc3)cc2)CCCC1` , result: 6630

// cell count lookup, molecule = `N[C@@H](Cc1cc(CP(=O)(O)O)cc(-c2ccccc2Cl)c1)C(=O)O` , result: 9360

// cell count lookup, molecule = `COc1cc(OC)c2c(=O)[nH]c(-c3cc(C)c(OCCO)c(C)c3)nc2c1` , result: 7650

// cell count lookup, molecule = `Oc1ccc(-c2nc3cc(O)cc(Br)c3o2)cc1` , result: 8500

// cell count lookup, molecule = `CCCCCCCCCCCCC/C=C/[C@@H](O)[C@H](CO)N(C)C` , result: 5480

// cell count lookup, molecule = `COc1cccc(CCc2ccccc2OCC[C@@H]2C[C@@H](O)CN2C)c1` , result: 7340

Reference source: PubChem BioAssay
